Test system: DSH1 (Bladder Carcinoma)
Assay: Bliss excess, mean over the matrix (fraction); higher = more synergy;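 further: after 72 h of two-drug dosing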
MEASURED PARAMETER: Bliss excess
API doc: respond with a numeric literal and nothing else, no unit.

A selection of reference data follows.
[
  {
    "MOLECULE": "CC1(C)CCC(CN2CCN(c3ccc(C(=O)NS(=O)(=O)c4ccc(NCC5CCOCC5)c([N+](=O)[O-])c4)c(Oc4cnc5[nH]ccc5c4)c3)CC2)=C(c2ccc(Cl)cc2)C1 [Venetoclax] + CS(=O)(=O)CCNCc1ccc(-c2ccc3ncnc(Nc4ccc(OCc5cccc(F)c5)c(Cl)c4)c3c2)o1 [Lapatinib] (first compound max 1 µM, 7x7, partner max 10 µM)",
    "EXPERIMENTAL SYSTEM": "DSH1 (Bladder Carcinoma)",
    "Bliss excess": -0.021
  },
  {
    "MOLECULE": "Cc1cc2ncnn2cc1Nc1ncc2c(n1)n(C1CCOCC1)c(=O)n2C [AZD7648] + CCN(CCO)CCCOc1ccc2c(Nc3cc(CC(=O)Nc4cccc(F)c4)[nH]n3)ncnc2c1 [AZD2811] (first compound max 10 µM, 7x7, partner max 1 µM)",
    "EXPERIMENTAL SYSTEM": "DSH1 (Bladder Carcinoma)",
    "Bliss excess": 0.0145
  },
  {
    "MOLECULE": "CN(C)CCCOc1ccc(-c2ccc3ncc4c(c3c2)n(C2CCOCC2)c(=O)n4C)cn1 [AZD0156] + O=C(c1cc(Cc2n[nH]c(=O)c3ccccc23)ccc1F)N1CCN(C(=O)C2CC2)CC1 [Olaparib] (first compound max 3 µM, partner max 3 µM)",
    "EXPERIMENTAL SYSTEM": "DSH1 (Bladder Carcinoma)",
    "Bliss excess": 0.0328
  }
]

With those in mind, consider the next molecule.
input: Give reported Bliss excess for N#Cc1cnc(Nc2cc(NC[C@H]3CNCCO3)c(C(F)(F)F)cn2)cn1 [SRA737] + C=CCn1c(=O)c2cnc(Nc3ccc(N4CCN(C)CC4)cc3)nc2n1-c1cccc(C(C)(C)O)n1 [AZD1775] (first compound max 10 µM, partner max 1 µM) (DSH1 (Bladder Carcinoma))
output: -0.0441

---

# Lookup of reported Bliss excess keyed by entry
System: LU-99A (Non-Small Cell Lung Carcinoma)
Test: Bliss excess, mean over the matrix (fraction); higher = more synergy
API doc: respond with a numeric literal and nothing else, no unit.

A selection of reference data follows.
[
  {
    "COMPOUND": "Cc1c2c(nn1C)CSCc1cc(n(C)n1)CSc1cc(c3ccccc3c1)OCCCc1c(C(=O)O)n(C)c3c-2c(Cl)ccc13 [AZD5991] + Cc1cc2ncnn2cc1Nc1ncc2c(n1)n(C1CCOCC1)c(=O)n2C [AZD7648] (first compound max 1 µM, 7x7, partner max 10 µM)",
    "TEST VALUE": -0.0397
  },
  {
    "COMPOUND": "Cn1cnc2c(F)c(Nc3ccc(Br)cc3Cl)c(C(=O)NOCCO)cc21 [Selumetinib] + C[C@@H]1COCCN1C2=NC(=NC(=C2)C3(CC3)[S@](=N)(=O)C)C4=C5C=CNC5=NC=C4 [AZD6738] (first compound max 10 µM, 7x7, partner max 10 µM)",
    "TEST VALUE": 0.0565
  }
]

input: Given C[C@@H](c1ccc2nccn2c1)n1nnc2ncc(-c3cnn(C)c3)nc21 [Savolitinib] + Cc1c2c(nn1C)CSCc1cc(n(C)n1)CSc1cc(c3ccccc3c1)OCCCc1c(C(=O)O)n(C)c3c-2c(Cl)ccc13 [AZD5991] (first compound max 1 µM, 7x7, partner max 1 µM) , respond with its Bliss excess.
output: -0.0346

input: Given C=CCn1c(=O)c2cnc(Nc3ccc(N4CCN(C)CC4)cc3)nc2n1-c1cccc(C(C)(C)O)n1 [AZD1775] + C[C@@H]1COCCN1C2=NC(=NC(=C2)C3(CC3)[S@](=N)(=O)C)C4=C5C=CNC5=NC=C4 [AZD6738] (first compound max 1 µM, partner max 10 µM) , respond with its Bliss excess.
output: -0.0377

input: Given Cc1cc2ncnn2cc1Nc1ncc2c(n1)n(C1CCOCC1)c(=O)n2C [AZD7648] + CCN(CCO)CCCOc1ccc2c(Nc3cc(CC(=O)Nc4cccc(F)c4)[nH]n3)ncnc2c1 [AZD2811] (first compound max 10 µM, 7x7, partner max 1 µM) , respond with its Bliss excess.
output: 0.0216

input: Given CN(C)CCCOc1ccc(-c2ccc3ncc4c(c3c2)n(C2CCOCC2)c(=O)n4C)cn1 [AZD0156] + C[C@@H]1COCCN1C2=NC(=NC(=C2)C3(CC3)[S@](=N)(=O)C)C4=C5C=CNC5=NC=C4 [AZD6738] (first compound max 1 µM, 7x7, partner max 10 µM) , respond with its Bliss excess.
output: -0.0423
